Sourced from ChEMBL document CHEMBL1201862

Test system: MDA-MB-231
Assay: NCI tumour cell line growth inhibition, 48 h
Activity calls are given as the source filed them. No stated cut-off is given here; in the data, active = GI50 up to about 1.1 µM and inactive = higher.
quantityMeasured: GI50

Some solved entries appear below for comparison.
molecule	GI50
c1ccc2c(c1)SC1=C(SC(=C3SC4=C(S3)Sc3ccccc3S4)S1)S2	> 100 µM (inactive)
Cc1ccc(S(=O)(=O)n2cncc2CO)cc1	> 100 µM (inactive)
CCCOC(=O)c1cc(C(=CCC[C@H]2CC[C@@]3(C)[C@@H](CC[C@@H]4[C@@H]3CC[C@]3(C)[C@@H](C(C)CCCC(C)C)CC[C@@H]43)C2)c2cc(Cl)c(O)c(C(=O)OCCC)c2)cc(Cl)c1O (some centres undefined)	> 50 µM (inactive)
COP(=O)(C(/C=C/c1ccccc1)OC(C)=O)[C@@H]1CCCC[C@H]1N(CC(C)(C)C)C(C)=O (some centres undefined)	14.8 µM (inactive)
Nc1nc(N)nc(-c2cnccn2)n1	53 µM (inactive)

Request: API: value(readout=GI50, system=MDA-MB-231) for record `C/C(=N\NC(=O)/C(C#N)=C\c1ccc(N(CCC#N)CCC#N)cc1)c1ccccc1`
Response: > 10 µM (inactive)

Request: API: value(readout=GI50, system=MDA-MB-231) for record `NC1CCN(c2nc3ccccc3c3c2CCCC3)CC1`
Response: 3.43 µM (inactive)

Request: API: value(readout=GI50, system=MDA-MB-231) for record `CCCSc1cc(Cl)c(C)cc1S(=O)(=O)n1ccnc1O`
Response: > 100 µM (inactive)

Request: API: value(readout=GI50, system=MDA-MB-231) for record `Nn1c(=O)[nH]c2ncn(Cc3ccccc3)c2c1=O`
Response: > 100 µM (inactive)

----------
System: HOP-62
Assay: NCI tumour cell line growth inhibition, 48 h
Activity calls are given as the source filed them. No stated cut-off is given here; in the data, active = GI50 up to about 1.1 µM and inactive = higher.
Outcome (select one): active, inactive

Examples from the recorded data:
>>> print(df.to_string())
                                   compound     class
0                CCOC(=O)C(=O)Nc1cccc(C)c1C  inactive
1  COc1ccc2nc(NC(=O)C(=O)C(C#N)c3ccc([N+](=O)[O-])cc3)sc2c1 (stereo not given)  inactive
2  c1ccc(B2OCC(C3OB(c4ccccc4)OC4COB(c5ccccc5)OC43)O2)cc1 (stereo not given)  inactive
3     O=C(CN1CCOCC1)Nc1nc(-c2ccc(Cl)cc2)cs1  inactive
4  COc1ccc(/C=C2\C[C@H]3[C@@H]4CCC5=CC(=O)CC[C@]5(C)[C@H]4CC[C@]3(C)C2=O)cc1OC    active

Request: Dear colleague, could you share the recorded outcome for `N=C(N)N/N=C/c1c(-c2ccc(Cl)cc2)nc2sc(Cl)cn12` when you have a moment?
Response: inactive

Request: Dear colleague, could you share the recorded outcome for `Nc1nnc(CCC(=O)Nc2cc(Cl)ccc2Cl)n1N` when you have a moment?
Response: inactive

Request: Dear colleague, could you share the recorded outcome for `c1ccc(C[n+]2cccc(-c3cc4ccccc4[nH]3)c2)cc1` when you have a moment?
Response: inactive

Request: Dear colleague, could you share the recorded outcome for `CNC(=O)N(C)C(=O)c1ccccc1C(=O)N(C)C(=O)NC` when you have a moment?
Response: inactive

Request: Dear colleague, could you share the recorded outcome for COP(=O)(C(/C=C/c1ccccc1)OC(C)=O)[C@@H]1CCCC[C@H]1N(CC(C)(C)C)C(C)=O (stereo not given in full) when you have a moment?
Response: inactive
